Origin of measurements: PubChem BioAssay AID1963442

Test system: MPNST complex spheroid with HUVEC/MSC, growth, % test/control
PROCEDURE_TEXT: Anticancer human tumor MPNST cell line growth inhibition [Asc];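 also: compounds left on spheroids for seven days before reading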
CONDITION_DESCRIPTION: second compound 1 µM; first compound 1 µM; active compounds read low
Excerpt: Multicellular complex tumor spheroid response to apoptosis pathway targeting inhibitors Alrizomadlin, Pelcitoclax, and Dasminapant in combination with a variety of drugs and investigational agents in selected tumor cell lines […] Compounds. […] If the clinical Cmax for an agent had not been determined, the highest concentration tested was 10 microM. […]
ENDPOINT_LABEL: viability, T/C (%)

>>> quantitative_readout("CCN1CCN(Cc2ccc(Nc3ncc(F)c(-c4cc(F)c5nc(C)n(C(C)C)c5c4)n3)nc2)CC1 + Cc1c(S(C)(=O)=O)c(-c2cc(F)cc(N3CCN(c4ccc(NS(=O)(=O)c5ccc(NC(CCN6CCC(C(=O)OCCCP(=O)(O)O)CC6)CSc6ccccc6)c(S(=O)(=O)C(F)(F)F)c5)cc4)CC3)c2)c(-c2ccc(Cl)cc2)n1C(C)C")
55.1
>>> quantitative_readout("C#Cc1c(F)ccc2cc(O)cc(-c3ncc4c(N5CC6CCC(C5)N6)nc(OCC56CCCN5CC(F)C6)nc4c3F)c12 (stereo not drawn) + Cc1c(S(C)(=O)=O)c(-c2cc(F)cc(N3CCN(c4ccc(NS(=O)(=O)c5ccc(NC(CCN6CCC(C(=O)OCCCP(=O)(O)O)CC6)CSc6ccccc6)c(S(=O)(=O)C(F)(F)F)c5)cc4)CC3)c2)c(-c2ccc(Cl)cc2)n1C(C)C")
95.4
>>> quantitative_readout("COc1c(OCCCN2CCOCC2)ccc2c3n(c(=NC(=O)c4cnc(N)nc4)nc12)CCN3 + Cc1c(S(C)(=O)=O)c(-c2cc(F)cc(N3CCN(c4ccc(NS(=O)(=O)c5ccc(NC(CCN6CCC(C(=O)OCCCP(=O)(O)O)CC6)CSc6ccccc6)c(S(=O)(=O)C(F)(F)F)c5)cc4)CC3)c2)c(-c2ccc(Cl)cc2)n1C(C)C")
14.4
